# Test system: UO-31 renal
# assay-info: NCI-60 one-dose screen, 48 h
# setup-conditions: 10 µM
This is part of a sample that, as a whole, favours compounds with a hit. Of some 83,000 tested, about 20% had one in any assay. Activity calls are given as the source filed them. How the source made its calls: active means growth percent below 10; inactive means the rest.
Assign a class; possible classes are active, inactive

[Q] Record lookup: outcome of this test for CC(CN(C)C)Oc1ccc(OC(C)CN(C)C)c2c1C(=O)c1ccccc1C2=O (stereo unspecified) ?
[A] inactive

[Q] Record lookup: outcome of this test for "NNC(=O)Oc1c(Cl)cc(Cl)cc1[N+](=O)[O-]" ?
[A] inactive

More entries:
[Q] Record lookup: outcome of this test for "Cc1ccc2nc(Cl)c(-c3nc4ccccc4o3)cc2c1" ?
[A] inactive

[Q] Record lookup: outcome of this test for "COc1ccc(/C=C/C(=O)C(=O)/C=C/c2ccc(OC)c(OC)c2)cc1OC" ?
[A] active

[Q] Record lookup: outcome of this test for "Clc1ccc(C2=NN=C3C(Cc4ccccc4)=Nc4ccccc4N3C2)cc1" ?
[A] inactive

[Q] Record lookup: outcome of this test for CCCN1CN2C(=O)N3CN(CCC)CN4C(=S)N(C1)C2C34 (stereo unspecified) ?
[A] inactive
